Assay notes: Blood brain barrier penetration assay in rats (short oral absorption model)
Format: in vivo
Run parameters: male, Han Wistar, rat, CSF, po, male Han Wistar rats, oral; AUC(CSF)/AUC(blood or plasma) x 1/fu; read-out: Kp,uu CSF
Measured endpoint: Kp uu

Solved cases below.
[2H]C([2H])([2H])N1CCC(Oc2cccc3ncnc(Nc4ccc(Oc5ccn6ncnc6c5)c(C)c4)c23)C(F)(F)C1 (single isomer, unassigned) | 1.44
[2H]C1(Oc2cc(OC)cc3ncnc(Nc4ccc(Oc5ccn6ncnc6c5)c(C)c4)c23)CCN(C)CC1(F)F (racemic) | 0.52
COc1cc(O[C@H]2CCN(C)CC2(F)F)c2c(Nc3ccc(Oc4ccn5ncnc5c4)c(C)c3)ncnc2c1 (single isomer, unassigned) | 0.56
[2H]C([2H])([2H])N1CCC([2H])(Oc2cc(OC)cc3ncnc(Nc4ccc(Oc5ccn6ncnc6c5)c(C)c4)c23)C(F)(F)C1 (single isomer, unassigned) | 0.52

P. Cc1cc(Nc2ncnc3cccc(OC4CC(C)N(C)CC4(F)F)c23)ccc1Oc1ccn2ncnc2c1 (single isomer, unassigned)
Q. [2H]C([2H])([2H])N1CC[C@H](Oc2cccc3ncnc(Nc4ccc(Oc5ccn6ncnc6c5)c(C)c4)c23)C[C@@H]1C(F)(F)F (racemic)
R. Cc1cc(Nc2ncnc3cc(F)cc(OC4CCN(C)CC4(F)F)c23)ccc1Oc1ccn2ncnc2c1 (single isomer, unassigned)
S. COc1cc(O[C@H]2CCNCC2(F)F)c2c(Nc3ccc(Oc4ccn5ncnc5c4)c(C)c3)ncnc2c1
**Query** Returns the items ordered by Kp uu, from maximum to minimum. Give your ranking as a list of the labels in the requested order.
**Result** Q, R, P, S
(Q: 1.92, R: 1.02, P: 0.4, S: 0.11)
